- ASSAY_SYSTEM: T1, recombinant human CD137 (Homo sapiens, UniProt Q07011)
- T1 construct: made in house; host or cells: FreeStyle293F
- T1 sequence (Q07011 with tags, fused parts or gaps): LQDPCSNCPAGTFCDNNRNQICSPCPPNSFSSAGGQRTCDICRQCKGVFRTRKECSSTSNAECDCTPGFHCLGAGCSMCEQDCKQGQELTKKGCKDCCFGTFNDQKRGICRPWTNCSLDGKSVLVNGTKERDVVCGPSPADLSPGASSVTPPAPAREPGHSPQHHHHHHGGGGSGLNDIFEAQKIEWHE
- EXPERIMENT_DESCRIPTION: Biacore T200 SPR affinity of Dual-Fab antibodies to human CD137
- Assay type: binding
- CONDITION_INFO: 37 degrees C, pH 7.4
PARAMETER: CD137 Kon
State the value with its unit after it.

Task item: Record request: CD137 Kon value, item H1550L0918: affinity matured Dual-Fab variant, VH SEQ ID NO 92, VL SEQ ID NO 144 (antibody, V domains shown) VH: QVQLVESGGGLVQPGRSLRLSCAASGFKFSNVWMHWVRQAPGKGLEWVAQIKDKYNAYAAYYAPSVKGRFTISRDDSKNSIYLQMNSLKTEDTAVYYCHYIHYASASTLLPAFGVDAWGQGTTVTVSS VL: DIVMTQSPLSLPVTPGEPASISCQPSQEVVHMNNVVYLHWYQQKPGQAPRLLIYKVSNRFPGVPDRFSGSGSGTDFTLKISRVEAEDVGVYYCAQGTSHPFTFGQGTKLEIK
Reply: 10900 M⁻¹ s⁻¹
